Reference for the values: ChEMBL document CHEMBL5344433

Target: Solute carrier family 2, facilitated glucose transporter member 1 (Homo sapiens, UniProt P11166)
Sequence (P11166 whole entry): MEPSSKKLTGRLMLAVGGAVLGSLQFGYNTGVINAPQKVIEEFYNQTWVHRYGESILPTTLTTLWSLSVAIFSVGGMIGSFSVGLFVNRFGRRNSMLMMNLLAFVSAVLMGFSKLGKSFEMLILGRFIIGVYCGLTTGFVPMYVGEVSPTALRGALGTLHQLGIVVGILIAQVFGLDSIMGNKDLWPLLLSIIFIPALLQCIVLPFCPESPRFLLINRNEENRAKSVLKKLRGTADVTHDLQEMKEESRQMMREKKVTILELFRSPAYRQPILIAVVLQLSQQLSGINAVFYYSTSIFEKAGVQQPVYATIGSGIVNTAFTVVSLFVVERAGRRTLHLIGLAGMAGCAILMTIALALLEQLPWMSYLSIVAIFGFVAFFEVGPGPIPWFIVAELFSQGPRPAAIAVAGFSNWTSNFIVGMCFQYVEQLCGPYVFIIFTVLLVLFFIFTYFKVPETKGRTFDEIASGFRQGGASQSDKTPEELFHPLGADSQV
Assay: Inhibition of GLUT1 in human MCF7 cells assessed as ATP production incubated for 24 hrs in presence of 0.1 mM glucose
Type: cell-based
RESULT_TYPE: pIC50
Scale: negative log10 of molar concentration, which is what pIC50 denotes.

## Task Give me measured pIC50, please, for this compound: CC(=O)O[C@H]1[C@@H]2O[C@]2([C@H](C)[C@H]2CC(CO)=C(C)C(=O)O2)[C@@]2(C)CCC3C(C[C@@H](O)[C@@]4(O)CC=CC(=O)[C@]34C)[C@@]12O (stereo partly specified)
## Result 5.46

====

Biological target: Solute carrier family 2, facilitated glucose transporter member 1 (Homo sapiens, UniProt P11166)
Give pKd for every item shown.
Scale: negative log10 of molar concentration, which is what pKd denotes.

## Task Give me measured pKd, please, for this compound: CC(=O)O[C@H]1[C@@H]2O[C@]2([C@H](C)[C@H]2CC(CO)=C(C)C(=O)O2)[C@@]2(C)CCC3C(C[C@@H](O)[C@@]4(O)CC=CC(=O)[C@]34C)[C@@]12O (stereo partly drawn)
## Result 5.59

## Task Give me measured pKd, please, for this compound: CC(=O)O[C@H]1C[C@@](O)([C@H](C)[C@H]2CC(C)=C(C)C(=O)O2)[C@@]2(C)CC[C@H]3[C@@H](C[C@H]4O[C@]45CC=CC(=O)[C@]35C)[C@@]12O
## Result 5.59

## Task Give me measured pKd, please, for this compound: CC(=O)O[C@H]1C[C@H]([C@H](C)[C@@H]2OC(=O)C(C)=C(C)[C@@H]2O)[C@@]2(C)CCC3C(C[C@@H](O)[C@@]4(O)CC=CC(=O)[C@]34C)[C@@]12O (stereo partly drawn)
## Result 5.62
